Entry source: PubChem BioAssay (NCI)

- System: HCT-15 colon
- measurement notes: NCI tumour cell line growth inhibition, 48 h
readout: TGI

// lookup TGI for C=CCN(c1cc(OC)c2[nH]c(C(=O)O)c(C)c2c1[N+](=O)[O-])S(C)(=O)=O
> 100 µM

More entries:
// lookup TGI for Cn1c2ccccc2c2c3c(=O)[nH][nH]c(=O)c3c3c4ccccc4n(C)c3c21
> 100 µM

// lookup TGI for CSc1ncnc2c1cnn2Cc1cn(COCC(O)CO)nn1 (stereo not drawn)
> 100 µM

// lookup TGI for C/C(=N\O)[C@H]1CC[C@@]2(C)[C@@H]3CC[C@H]4C(C)(C)/C(=N/O)CC[C@@]45CC35CC[C@]12C (stereo partly drawn)
10.5 µM

// lookup TGI for COC(=O)C1=C(C(=O)OC)N(C(C)C)[C@H]2C(C(=O)OC)=C(C(=O)OC)N(C(C)C)[C@@H]12
> 100 µM

// lookup TGI for C=C1C[C@@H]2CC[C@@]34CC5O[C@H]6C(O[C@H]7CC[C@H](CC(=O)O[C@@H]8[C@@H](C)[C@@H]9O[C@@H]%10C[C@]%11(C[C@@H]%12O[C@]%13(C[C@H](C)[C@@H]%14O[C@@H]%15CC(C(COC(C)=O)OC(C)=O)O[C@@H]%15C[C@@H]%14O%13)C[C@H](C)[C@@H]%12O%11)O[C@@H]%10C[C@@H]9O[C@H]8CC8O[C@@H](CC[C@@H]1O2)C[C@@H](C)C8(O)CO)O[C@@H]7[C@@H]6O3)[C@H]5O4 (stereo partly drawn)
> 1 µM

// lookup TGI for O=C(O)CCSc1ncnc2nc[nH]c12
> 100 µM

----------
- Test system: UACC-257 melanoma
- measurement notes: NCI tumour cell line growth inhibition, 48 h
The molecules listed here are annotated with their TGI.

Below, 3 molecules whose answers are already recorded.
// lookup TGI for CC(=O)OC1COC(N2c3ccccc3[C@@H]3CCc4c([nH]c5ccccc45)[C@@H]32)C(OC(C)=O)C1OC(C)=O (mixture of isomers)
> 100 µM

// lookup TGI for Cc1nc2ccccc2n1Cc1ccc(NC(=S)Nc2ccccc2)cc1
> 100 µM

// lookup TGI for COc1ccc(-c2nn(-c3cccc(Cl)c3)cc2/C=C2\C(=N)N(c3ccccc3)N=C2N)cc1
33.6 µM

More entries:
// lookup TGI for O=C1c2cccnc2C(=O)c2c1nc1ccccc1c2-c1ccc2c3c(nc4ccccc42)C(=O)c2cccnc2-c13
5.38 µM

// lookup TGI for C[C@@H](CCO)OC1OC(COC(=O)C(C)(C)C)C(OC(=O)C(C)(C)C)C(OC(=O)C(C)(C)C)C1OC(=O)C(C)(C)C (stereo partly specified)
> 100 µM

// lookup TGI for CC(=O)Oc1ccc2c(c1)O/C(=C\c1ccc(O)cc1)C2=O
> 100 µM

// lookup TGI for CCc1ccc(OCc2ccccc2C(=O)Nc2ccc3nc(C)cc(N)c3c2)cc1
3.37 µM

----------
- Test system: CAKI-1 renal
- measurement notes: NCI tumour cell line growth inhibition, 48 h; in the data active = GI50 below about 0.43 µM; inactive = the rest
Respond only with the outcome that fits, drawn from yes (1) = active, no (0) = inactive

Check out these entries, answers already filled in.
Could you please tell me the result logged for COc1ccc2c(c1)c(-c1cc(-c3cn(C)c4ccc(OC)cc34)[nH]n1)cn2C in this assay?
no (0)

Could you please tell me the result logged for O=C(Nc1nc2ccc(F)cc2s1)c1cccnc1Nc1ccc(Cl)cc1Cl in this assay?
no (0)

Could you please tell me the result logged for CCOC(=O)/N=c1\ssc(Cl)c1Cl in this assay?
no (0)

Could you please tell me the result logged for Cc1cc([C@H](C)Nc2nccc(N3C(=O)OC[C@@H]3[C@H](C)F)n2)ncc1-c1ccnc(C(F)(F)F)c1 in this assay?
no (0)

Could you please tell me the result logged for CC(=O)c1c(Nc2ccc(F)c(F)c2F)[nH]c2c(F)cc(F)cc2c1=O in this assay?
yes (1)

Could you please tell me the result logged for NCCn1c2c(c3ccccc3c1=O)C(=O)c1ccccc1-2 in this assay?
yes (1)

Could you please tell me the result logged for N#Cc1c(-c2ccc(Cl)cc2)csc1NC(=O)Nc1cccc(C(F)(F)F)c1 in this assay?
no (0)

Could you please tell me the result logged for CCOC(=O)C(=Cc1c(-c2ccccc2)[nH]c2ccccc12)C(=O)OCC in this assay?
no (0)

Could you please tell me the result logged for COc1cccc(C2CC(=O)Nc3cc4c(cc32)CCC4)c1OC (stereo not given) in this assay?
no (0)

Then there is this compound:
Could you please tell me the result logged for CC(=O)OC1Oc2cc(C)c(C)cc2-c2oc(=O)c(-c3ccccc3)cc21 (stereo not given) in this assay?
no (0)
